target: Human neutrophil elastase (Homo sapiens)
protocol details: Human Neutrophil Elastase Assay
condition context: Neutrophil Elastase assay; substrate MeOSuc-Ala-Ala-Pro-Val-AMC 250 μM; 15 min preincubation, 60 min incubation at room temperature; pH 7.5
pIC50: −log10 of the molar value.
assay readout: pIC50

Consider the worked cases shown below.
[
  {
    "compound": "Cc1c(-c2cccc(C(F)(F)F)c2)c(=O)c(C(=O)NCC#N)cn1C(C)c1ccc(C#N)cn1 (centres unmarked)",
    "assay readout": "pIC50",
    "measured number": 8.60
  },
  {
    "compound": "Cc1c(-c2cccc(C(F)(F)F)c2)c(=O)c(C(=O)NCC2CCN(C(=O)CN(C)C)CC2)cn1Cc1ccc(C#N)cc1",
    "assay readout": "pIC50",
    "measured number": 7.80
  },
  {
    "compound": "CNC(=O)c1cn(Cc2ccc(C#N)cc2F)c(C)c(-c2cccc(C(F)F)c2)c1=O",
    "assay readout": "pIC50",
    "measured number": 7.93
  },
  {
    "compound": "Cc1c(-c2cccc(C(F)F)c2)c(=O)c(C(=O)NCCCCO)cn1C(C)c1ccc(C#N)cc1 (centres unmarked)",
    "assay readout": "pIC50",
    "measured number": 8.49
  }
]

(I) Cc1c(-c2ccnc(C(F)(F)F)c2)c(=O)c(C(=O)NC2COCC2O)cn1C(C)c1ccc(C#N)cc1 (centres unmarked) [Example 9.40]
(II) Cc1c(-c2cccc(C(F)(F)F)c2)c(=O)c(C(=O)NCC(C)O)cn1Cc1ccc(C#N)cc1 (centres unmarked)
// which entry has the larger pIC50 value, I or II ? API: response body contains the label of the selected item.
II

====

target: Human neutrophil elastase (Homo sapiens, UniProt P08246)
Sequence (P08246 30-267): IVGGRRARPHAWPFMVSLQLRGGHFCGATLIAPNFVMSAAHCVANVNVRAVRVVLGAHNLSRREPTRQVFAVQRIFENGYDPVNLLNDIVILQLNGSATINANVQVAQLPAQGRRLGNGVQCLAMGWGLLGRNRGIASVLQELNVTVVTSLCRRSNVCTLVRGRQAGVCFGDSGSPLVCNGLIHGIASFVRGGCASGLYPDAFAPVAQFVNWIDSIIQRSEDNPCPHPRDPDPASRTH
protocol details: Human Neutrophil Elastase Assay
condition context: Neutrophil Elastase assay; substrate MeOSuc-Ala-Ala-Pro-Val-AMC 250 μM; 15 min preincubation, 60 min incubation at room temperature; pH 7.5
assay readout: IC50 (nM)

[
  {
    "compound": "Cc1c(-c2cccc(C(F)(F)F)c2)c(=O)c(C(=O)NCCN2CCCC2=O)cn1Cc1ccc(C#N)cc1 [Example 1.28]",
    "IC50 (nM)": 21.8
  }
]

(a) COCCCNC(=O)c1cn(C(C)c2ccc(C#N)cc2)c(C)c(-c2cccc(C(F)F)c2)c1=O (stereo not shown) [Example 8.25]
(b) Cc1c(-c2cccc(C(F)(F)F)c2)c(=O)c(C(=O)NCC(F)F)cn1C(C)c1ccc(C#N)cn1 (stereo not shown) [Example 47.19]
(c) Cc1c(-c2ccnc(C(F)(F)F)c2)c(=O)c(C(=O)NC2CCCC2O)cn1C(C)c1ccc(C#N)cc1 (stereo not shown) [Example 9.35]
(d) Cc1c(-c2cccc(C(F)(F)F)c2)c(=O)c(C(=O)NCc2cccnc2)cn1Cc1ccc(C#N)cc1 [Example 1.46]
Rank items: key IC50, increasing. Order the labels as requested and give them as your answer.
a, d, b, c
(a: 1.8 nM, d: 5.9 nM, b: 10.3 nM, c: 26.2 nM)

====

target: Human neutrophil elastase (Homo sapiens, UniProt P08246)
protocol details: Human Neutrophil Elastase Assay
condition context: Neutrophil Elastase assay; substrate MeOSuc-Ala-Ala-Pro-Val-AMC 250 μM; 15 min preincubation, 60 min incubation at room temperature; pH 7.5
pIC50: −log10 of the molar value.
assay readout: pIC50

(I) Cc1c(-c2cccc(C(F)(F)F)c2)c(=O)c(C(=O)NC2CCNC2=O)cn1C(C)c1ccc(C#N)cc1 (stereo not shown)
(II) Cc1c(-c2cccc(C(F)(F)F)c2)c(=O)c(C(=O)NC2CCNC2=O)cn1C(C)c1ccc(C#N)cn1 (stereo not shown)
(III) Cc1c(-c2cccc(C(F)(F)F)c2)c(=O)c(C(=O)NC2CCOCC2)cn1C(C)c1ccc(C#N)cn1 (stereo not shown)
Sort these compounds on pIC50 so the largest reading comes first. Order the labels as requested and give them as your answer.
I, II, III
(I: 8.82, II: 8.14, III: 7.72)

====

target: Human neutrophil elastase (Homo sapiens, UniProt P08246)
protocol details: Human Neutrophil Elastase Assay
condition context: Neutrophil Elastase assay; substrate MeOSuc-Ala-Ala-Pro-Val-AMC 250 μM; 15 min preincubation, 60 min incubation at room temperature; pH 7.5
assay readout: IC50 (nM)

Consider the worked cases shown below.
[
  {
    "molecule": "Cc1c(-c2ccnc(C(F)(F)F)c2)c(=O)c(C(=O)NCCCO)cn1C(C)c1ccc(C#N)cc1 (stereo not shown)",
    "readout units": "nM",
    "IC50": 4.5
  },
  {
    "molecule": "Cc1c(-c2ccnc(C(F)(F)F)c2)c(=O)c(C(=O)NCC2CC2)cn1C(C)c1ccc(C#N)cc1 (stereo not shown)",
    "readout units": "nM",
    "IC50": 10.9
  }
]

(1) CCNC(=O)c1cn(Cc2ccc(C#N)cc2)c(C)c(-c2cccc(C(F)(F)F)c2)c1=O
(2) Cc1c(-c2cccc(C(F)(F)F)c2)c(=O)c(C(=O)NCc2ccc(S(C)(=O)=O)cc2)cn1Cc1cccc(C#N)c1
(3) Cc1c(-c2cccc(C(F)(F)F)c2)c(=O)c(C(=O)NCc2ccc(=O)[nH]c2)cn1Cc1ccc(C#N)cc1
(4) CNC(=O)c1cn(C(C)c2ccc(C#N)cc2)c(C)c(-c2ccnc(C(F)(F)F)c2)c1=O (single isomer, unassigned) [Example 9B]
Rank items: key IC50, increasing. Order the labels as requested and give them as your answer.
3, 1, 2, 4

====

target: Human neutrophil elastase (Homo sapiens)
protocol details: Human Neutrophil Elastase Assay
condition context: Neutrophil Elastase assay; substrate MeOSuc-Ala-Ala-Pro-Val-AMC 250 μM; 15 min preincubation, 60 min incubation at room temperature; pH 7.5
assay readout: IC50 (nM)

Consider the worked cases shown below.
[
  {
    "compound": "Cc1c(-c2cccc(C(F)(F)F)c2)c(=O)c(C(=O)NCC2CCN(C(=O)C[N+](C)(C)C)CC2)cn1Cc1ccc(C#N)cc1",
    "measured number": 14.4
  },
  {
    "compound": "Cc1c(-c2cccc(C(F)(F)F)c2)c(=O)c(C(=O)NCCC(C)O)cn1C(C)c1ccc(C#N)cn1 (centres unmarked)",
    "measured number": 12.2
  },
  {
    "compound": "Cc1c(-c2cccc(C(F)(F)F)c2)c(=O)c(C(=O)NCC2(O)CCN(C)CC2)cn1Cc1ccc(C#N)cc1",
    "measured number": 83
  }
]

(1) Cc1c(-c2ccnc(C(F)(F)F)c2)c(=O)c(C(=O)NC2COC2)cn1C(C)c1ccc(C#N)cc1 (centres unmarked)
(2) Cc1c(-c2cccc(C(F)(F)F)c2)c(=O)c(C(=O)NC(C)C#N)cn1C(C)c1ccc(C#N)cn1 (centres unmarked)
Please indicate which item has the smaller measured IC50: 1 versus 2 API: response body contains the label of the selected item.
2
(2: 6.2 nM, 1: 10.1 nM)

====

target: Human neutrophil elastase (Homo sapiens)
protocol details: Human Neutrophil Elastase Assay
condition context: Neutrophil Elastase assay; substrate MeOSuc-Ala-Ala-Pro-Val-AMC 250 μM; 15 min preincubation, 60 min incubation at room temperature; pH 7.5
assay readout: IC50 (nM)

[
  {
    "molecule": "Cc1c(-c2cccc(C(F)F)c2)c(=O)c(C(=O)NCCO)cn1C(C)c1ccc(C#N)cc1 (stereo not shown)",
    "readout units": "nM",
    "IC50": 1.9
  },
  {
    "molecule": "CCOCCNC(=O)c1cn(C(C)c2ccc(C#N)cc2)c(C)c(-c2cccc(C(F)F)c2)c1=O (stereo not shown)",
    "readout units": "nM",
    "IC50": 1.7
  }
]

(A) Cc1c(-c2cccc(C(F)F)c2)c(=O)c(C(=O)NC2CCN(C)C2=O)cn1C(C)c1ccc(C#N)cc1 (stereo not shown)
(B) Cc1nnc(CNC(=O)c2cn(C(C)c3ccc(C#N)cc3)c(C)c(-c3ccnc(C(F)(F)F)c3)c2=O)o1 (stereo not shown)
// which entry has the larger IC50 value, A or B ? API: response body contains the label of the selected item.
B
(B: 7 nM, A: 1.6 nM)

====

target: Human neutrophil elastase (Homo sapiens)
protocol details: Human Neutrophil Elastase Assay
condition context: Neutrophil Elastase assay; substrate MeOSuc-Ala-Ala-Pro-Val-AMC 250 μM; 15 min preincubation, 60 min incubation at room temperature; pH 7.5
assay readout: IC50 (nM)

(a) Cc1c(-c2ccnc(C(F)(F)F)c2)c(=O)c(C(=O)NCC(=O)OC(C)C)cn1C(C)c1ccc(C#N)cc1 (stereo not shown) [Example 9.31]
(b) Cc1c(-c2ccnc(C(F)(F)F)c2)c(=O)c(C(=O)NCc2ccc(S(C)(=O)=O)cc2)cn1Cc1ccc(C#N)cc1F [Example 5.3]
// which entry has the larger IC50 value, a or b ? API: response body contains the label of the selected item.
a
(a: 18.7 nM, b: 1.4 nM)
